# Test system: Fibroblast
# Test Details: Incucyte cell viability with human fibroblast; note: unitless GR value; below 1 slowed growth and below 0 cell loss
# Type: toxicity, cell-based
# Condition Parameters: 12 h, 10 µM, compound concentration 10 uM, replicate number 2
Measured Attribute: Growth Rate
Lab note: record just the number, no unit beside it.

The examples below pair each entry with its known result.
1. COc1ccc(C(F)(F)F)cc1NC(=O)Nc1ccc(Oc2cc(C)nc(N)n2)c2ccccc12: 0.87
2. Cc1sc(C(=O)c2cncnc2N[C@@H]2C[C@H](COS(N)(=O)=O)[C@@H](O)C2)cc1[C@@H]1NCCc2ccc(Cl)cc21: 0.8
3. CN1CCN([C@H]2CC[C@@H](n3cc(-c4ccc(Oc5ccccc5)cc4)c4c(N)ncnc43)CC2)CC1: -0.72
4. CCC(=O)Nc1cc(Nc2cc(NC3CC3)n3ncc(C#N)c3n2)ccc1C: 0.67
5. O=C(O)C(F)(F)F.O=C1NC(=O)/C(=C/c2c[nH]c(=O)c(-c3ccc(N4CCNCC4)nc3)c2)S1: 0.62

Inquiry: Lab note: need Growth Rate with Fibroblast for entry "CN1CCCN(C(=O)c2cccc(-c3ccc(/C=C4/C(=O)Nc5ccc(Cl)cc54)o3)c2)CC1" , please look it up.
Reply text: -0.82

Inquiry: Repeat with "CC[C@H](Nc1ncnc2[nH]cnc12)c1nc2cccc(F)c2c(=O)n1-c1ccccc1"
Reply text: 0.49

Inquiry: Repeat with "Cc1cc2nc(N3CCC(C(=O)NC4CCCC4)CC3)n(C(C)C)c2cc1C"
Reply text: 0.74

Inquiry: Repeat with "COc1cc(C(C)C)c(Oc2cnc(NC(CO)CO)nc2N)cc1I"
Reply text: 0.88

Inquiry: Repeat with "O=C(Nc1ccc(OC(F)(F)Cl)cc1)c1cnc(N2CC[C@@H](O)C2)c(-c2ccn[nH]2)c1"
Reply text: 0.12

Inquiry: Repeat with "CCOc1ccccc1C(=O)NCC1(N2CCN(CC)CC2)CCCCC1"
Reply text: 0.93

Inquiry: Repeat with "Cc1cc(-c2nc(-c3ccc(OC(F)(F)F)cc3)no2)nn1Cc1ccnc(N2CCN(C3CC3)CC2)c1"
Reply text: 0.36

Inquiry: Repeat with "C=CC(=O)Nc1cccc(C)c1Nc1ncc2cc(-c3c(Cl)c(OC)cc(OC)c3Cl)ccc2n1"
Reply text: 0.44

Inquiry: Repeat with "C[C@@]1(Cc2ccc(C#N)cc2)C(=O)N(c2cc(Cl)cc(Cl)c2)c2ncc(C(=O)NC3(c4nc(C5CCC5)no4)CC3)n21"
Reply text: 0.12

Inquiry: Repeat with "CCc1cncnc1N1CCN(Cc2nc3cc(C(F)(F)F)ccc3[nH]2)CC1"
Reply text: 0.78

Inquiry: Repeat with "NC(=O)c1cc(-c2ccnc(NC3CCCCC3)c2)nc(N2CCNCC2)c1"
Reply text: 0.39

Inquiry: Repeat with "Cc1n[nH]c2ncc(C(=O)N3CCC[C@H]3c3ccc(Cl)cc3)cc12"
Reply text: 0.76

Inquiry: Repeat with CCn1c(-c2nc3cc(C(=O)N4CCCC(N)C4)ccc3n2C)cc2ccccc21.Cl (centres undefined)
Reply text: 0.96

Inquiry: Repeat with "CCc1ncnc(N2CCN(C(C)=O)CC2)c1C#Cc1ccc(N)nc1.Cl.Cl"
Reply text: 0.76
